B1: BBSome complex member BBS5 (Homo sapiens), Q8N3I7 (parent)
chain: MSVLDALWEDRDVRFDLSAQQMKTRPGEVLIDCLDSIEDTKGNNGDRGRLLVTNLRILWHSLALSRVNVSVGYNCILNITTRTANSKLRGQTEALYILTKCNSTRFEFIFTNLVPGSPRLFTSVMAVHRAYETSKMYRDFKLRSALIQNKQLRLLPQEHVYDKINGVWNLSSDQGNLGTFFITNVRIVWHANMNDSFNVSIPYLQIRSIKIRDSKFGLALVIESSQQSGGYVLGFKIDPVEKLQESVKEINSLHKVYSASPIFGVDYEMEEKPQPLEALTVEQIQDDVEIDSDGHTDAFVAYFADGNKQQDREPVFSEELGLAIEKLKDGFTLQGLWEVMS
partner: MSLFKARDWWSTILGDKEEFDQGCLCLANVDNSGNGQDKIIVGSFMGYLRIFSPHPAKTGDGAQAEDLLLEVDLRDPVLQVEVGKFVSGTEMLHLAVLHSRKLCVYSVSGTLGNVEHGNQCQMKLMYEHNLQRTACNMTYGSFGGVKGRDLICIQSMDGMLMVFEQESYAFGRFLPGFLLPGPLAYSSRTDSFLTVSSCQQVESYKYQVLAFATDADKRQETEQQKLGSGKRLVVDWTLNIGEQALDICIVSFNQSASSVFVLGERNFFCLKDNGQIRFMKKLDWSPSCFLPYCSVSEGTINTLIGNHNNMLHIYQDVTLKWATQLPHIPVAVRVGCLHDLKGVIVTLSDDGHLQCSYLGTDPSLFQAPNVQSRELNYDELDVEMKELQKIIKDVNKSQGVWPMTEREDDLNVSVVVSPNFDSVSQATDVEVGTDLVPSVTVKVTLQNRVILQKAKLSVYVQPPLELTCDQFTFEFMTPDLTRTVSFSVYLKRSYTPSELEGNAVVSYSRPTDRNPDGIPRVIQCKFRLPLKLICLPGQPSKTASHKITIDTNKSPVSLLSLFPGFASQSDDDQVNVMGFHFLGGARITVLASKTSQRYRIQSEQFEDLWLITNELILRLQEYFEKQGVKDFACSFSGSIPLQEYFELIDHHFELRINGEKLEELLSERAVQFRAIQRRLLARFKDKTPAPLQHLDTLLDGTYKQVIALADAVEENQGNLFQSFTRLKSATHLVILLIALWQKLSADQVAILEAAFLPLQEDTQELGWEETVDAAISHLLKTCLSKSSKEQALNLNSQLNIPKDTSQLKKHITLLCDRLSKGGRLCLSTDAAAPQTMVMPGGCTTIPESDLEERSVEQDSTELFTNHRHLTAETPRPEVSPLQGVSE

variants of: B1; details: with pthb1_human BBS9, Q3SYG4
measuredQuantity: effect of a mutation on the interaction

Take a look at these entries with their results.
INSERT INTO results (changes, measuredquantity, result) VALUES
  ('T111E', 'effect of a mutation on the interaction', 'with no effect'),
  ('T122K', 'effect of a mutation on the interaction', 'with no effect'),
  ('L34A', 'effect of a mutation on the interaction', 'with no effect'),
  ('F331A', 'effect of a mutation on the interaction', 'with no effect'),
  ('D297K', 'effect of a mutation on the interaction', 'with no effect'),
  ('Q21A', 'effect of a mutation on the interaction', 'with no effect');

stdin: Provide only the value of recorded effect of a mutation on the interaction for "G321A"
stdout: with no effect

stdin: Provide only the value of recorded effect of a mutation on the interaction for "I284K"
stdout: with no effect

stdin: Provide only the value of recorded effect of a mutation on the interaction for "R143A"
stdout: with no effect

stdin: Provide only the value of recorded effect of a mutation on the interaction for "F316K"
stdout: with no effect
